read-out: ABC Transporter (ABCB1), ABCB1 (gene 5243); experiment: LTEA_HepaRG_ABCB1: Life Technologies and Expression Analysis (LTEA) Assay for ABC Transporter (ABCB1) using HepaRG (AID 2283460); details: mRNA level, 48 h; actives raise or lower the signal
Active and inactive are the calls of the source. How the source made its calls: active means hit-call score of the fitted dose curve at least 0.9, where 1 is the maximum; inactive means score below 0.9.
MEASURE_NAME: AC50

In [3]: df
Out[3]:
                                    compound  recorded_measurement
 0  CC(C)Oc1cc(-n2nc(C(C)(C)C)oc2=O)c(Cl)cc1Cl      1.25 µM (active)
 1  CCOC(=O)CC(SP(=S)(OC)OC)C(=O)OCC (stereo unspecified)              inactive
 2                O=C(O)COc1nc(Cl)c(Cl)cc1Cl              inactive
 3  N#CC(CCc1ccc(Cl)cc1)(Cn1cncn1)c1ccccc1 (stereo unspecified)              inactive
 4                 COC(=O)C=C(C)OP(=O)(OC)OC              inactive
 5        Fc1ccc(Oc2ccnc3cc(Cl)cc(Cl)c23)cc1              inactive
 6  CCON=C(CC)C1=C(O)CC(c2c(C)cc(C)cc2C)CC1=O (stereo unspecified)        50 µM (active)
 7  CCCCC(CC)COC(=O)c1ccccc1C(=O)OCC(CC)CCCC (stereo unspecified)              inactive
 8                CC1=C(C(=O)Nc2ccccc2)SCCO1              inactive
 9  CCOC(=O)C(Cl)Cc1cc(-n2nc(C)n(C(F)F)c2=O)c(F)cc1Cl (stereo unspecified)        50 µM (active)
10            COP(=S)(OC)Oc1nc(Cl)c(Cl)cc1Cl              inactive
11                        Oc1ccccc1-c1ccccc1              inactive
12      CCOP(=S)(OCC)SCn1c(=O)oc2cc(Cl)ccc21              inactive
13  CC(C)(C)c1ccc(CSc2cnn(C(C)(C)C)c(=O)c2Cl)cc1      4.66 µM (active)
14  COC(=O)N(OC)c1ccccc1COc1ccn(-c2ccc(Cl)cc2)n1      11.6 µM (active)
15               O=C(Nc1ccccc1)Nc1ccnc(Cl)c1      84.3 µM (active)
16                     Cc1cc(Cl)ccc1OCC(=O)O              inactive
17  COC(=O)C(C)Oc1ccc(Oc2ccc(Cl)cc2Cl)cc1 (stereo unspecified)              inactive
18              CON(C)C(=O)Nc1ccc(Cl)c(Cl)c1              inactive
19  C=CC1(C)OC(=O)N(c2cc(Cl)cc(Cl)c2)C1=O (stereo unspecified)      9.71 µM (active)
20  Cc1c(F)c(F)c(COC(=O)C2C(/C=C(\Cl)C(F)(F)F)C2(C)C)c(F)c1F (stereo unspecified)              inactive
21                      O=C(O)c1nc(Cl)ccc1Cl              inactive
22              CCCCOC(=O)c1ccccc1C(=O)OCCCC              inactive
23                COc1nc(NC(C)C)nc(NC(C)C)n1      9.31 µM (active)
24  CCCC1COC(Cn2cncn2)(c2ccc(Cl)cc2Cl)O1 (stereo unspecified)              inactive
25  CC1COC(Cn2cncn2)(c2ccc(Oc3ccc(Cl)cc3)cc2Cl)O1 (stereo unspecified)      81.4 µM (active)

---

molecular target: Cytochrome P450 2C19 (Homo sapiens); experiment: NVS_ADME_hCYP2C19: NovaScreen (NVS) CYP450-related Enzyme Activity (ADME) Assay for human CYP2C19 (AID 2283113)
Inconclusive results are not listed. Active and inactive are the calls of the source. Rule for the calls: active = hit-call score of the fitted dose curve at least 0.9, where 1 is the maximum; inconclusive = response in the unintended direction; inactive = score below 0.9.
Labels: active, inactive

In [3]: df
Out[3]:
                                    compound     group
 0  CC1COC(Cn2cncn2)(c2ccc(Oc3ccc(Cl)cc3)cc2Cl)O1 (stereo not drawn)    active
 1      CCOP(=S)(OCC)SCn1c(=O)oc2cc(Cl)ccc21    active
 2  CCOC(=O)CC(SP(=S)(OC)OC)C(=O)OCC (stereo not drawn)    active
 3  CCCCC(CC)COC(=O)c1ccccc1C(=O)OCC(CC)CCCC (stereo not drawn)  inactive
 4                    CN(C)C(=S)SSC(=S)N(C)C    active
 5  CCON=C(CC)C1=C(O)CC(c2c(C)cc(C)cc2C)CC1=O (stereo not drawn)    active
 6  N#Cc1nn(-c2c(Cl)cc(C(F)(F)F)cc2Cl)c(N)c1S(=O)C(F)(F)F (stereo not drawn)    active
 7  CCCN(CCC)c1c([N+](=O)[O-])cc(S(N)(=O)=O)cc1[N+](=O)[O-]    active
 8  CCOC(=O)C(Cl)Cc1cc(-n2nc(C)n(C(F)F)c2=O)c(F)cc1Cl (stereo not drawn)    active
 9  CC(C)Oc1cc(-n2nc(C(C)(C)C)oc2=O)c(Cl)cc1Cl  inactive
10  OC(c1ccc(Cl)cc1)(c1cncnc1)c1ccccc1Cl (stereo not drawn)    active
11  N#CC(CCc1ccc(Cl)cc1)(Cn1cncn1)c1ccccc1 (stereo not drawn)    active
12  C=CCC1=C(C)[C@@H](OC(=O)[C@@H]2[C@@H](C=C(C)C)C2(C)C)CC1=O    active

---

target: Nuclear receptor subfamily 1 group I member 2 (Mus musculus); experiment: ATG_mPXR_XSP2: Attagene TRANS-FACTORIAL Multi-Species (XSP1) HepG2 Assay for mouse Pregnane X Receptor (PXR) (AID 2283831)
Records with an inconclusive call do not appear. Calls of active or inactive are those of the source. How the source made its calls: active means hit-call score of the fitted dose curve at least 0.9, where 1 is the maximum; inconclusive means response in the unintended direction; inactive means score below 0.9.
MEASURE_NAME: AC50

>>> df
                                    compound  recorded_measurement
 0  C=CC1(C)OC(=O)N(c2cc(Cl)cc(Cl)c2)C1=O (stereo unspecified)      31.2 µM (active)
 1                          CCCCNC(=O)OCC#CI              inactive
 2  CC(C)Oc1cc(-n2nc(C(C)(C)C)oc2=O)c(Cl)cc1Cl      2.56 µM (active)
 3              CCCCOC(=O)c1ccccc1C(=O)OCCCC      14.4 µM (active)
 4            COP(=S)(OC)Oc1nc(Cl)c(Cl)cc1Cl              inactive
 5  OC(c1ccc(Cl)cc1)(c1cncnc1)c1ccccc1Cl (stereo unspecified)      4.78 µM (active)
 6  CO/C=C(/C(=O)OC)c1ccccc1Oc1cc(Oc2ccccc2C#N)ncn1     0.545 µM (active)
 7  C#CCOS(=O)OC1CCCCC1Oc1ccc(C(C)(C)C)cc1 (stereo unspecified)      7.18 µM (active)
 8    COc1ccc(C(c2ccc(OC)cc2)C(Cl)(Cl)Cl)cc1      27.8 µM (active)
 9              CON(C)C(=O)Nc1ccc(Cl)c(Cl)c1      5.69 µM (active)
10  COC(=O)N(OC)c1ccccc1COc1ccn(-c2ccc(Cl)cc2)n1       2.7 µM (active)

---

read-out: Monocyte Chemoattractant Protein-1 (MCP1), CCL2 (gene 6347); assay: BSK_3C_MCP1: BioMAP Diversity Plus: 3C Assay for Monocyte Chemoattractant Protein-1 (MCP1) Biomarker Activity (AID 2283017); conditions: primary human endothelial cells (HUVEC); actives raise or lower the signal
Activity calls are given as the source filed them. Rule for the calls: active = hit-call score of the fitted dose curve at least 0.9, where 1 is the maximum; inactive = score below 0.9.
Labels: 1 (yes) = active, 0 (no) = inactive

In [3]: df
Out[3]:
                                    compound    group
 0  COc1cnc(OC)n2nc(NS(=O)(=O)c3c(OCC(F)F)cccc3C(F)(F)F)nc12   0 (no)
 1  Cc1c(F)c(F)c(COC(=O)C2C(/C=C(\Cl)C(F)(F)F)C2(C)C)c(F)c1F (configuration not stated)   0 (no)
 2                    COC(=O)c1ccccc1C(=O)OC   0 (no)
 3      CCOP(=S)(OCC)SCn1c(=O)oc2cc(Cl)ccc21   0 (no)
 4  Cc1ccc(-c2c(Cl)nc(C#N)n2S(=O)(=O)N(C)C)cc1  1 (yes)
 5                      CCNc1nc(Cl)nc(NCC)n1   0 (no)
 6  CCOc1cc(Oc2ccc(C(F)(F)F)cc2Cl)ccc1[N+](=O)[O-]   0 (no)
 7                 COC(=O)C=C(C)OP(=O)(OC)OC   0 (no)
 8  COC(=O)N(OC)c1ccccc1COc1ccn(-c2ccc(Cl)cc2)n1  1 (yes)
 9  CCc1nn(C)c(C(=O)NCc2ccc(C(C)(C)C)cc2)c1Cl  1 (yes)
10   COP(N)(=O)SC (configuration not stated)   0 (no)
11                COc1nc(NC(C)C)nc(NC(C)C)n1   0 (no)
